Test: chemical genetic growth profiling, strain panel (AID 1159580);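 also: tested at 20 µM; growth read once vehicle control cultures reached saturation at 30 °C; 1 = growth at the plate median or of vehicle wells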
Conditions: S. cerevisiae deletion strains, growth OD, locus YLR384C, strain iki3
In all, about 5,500 compounds went through this assay and about 2,000 (36%) were called active. Inconclusive results (about 18%) are left out. Rule as the data show it: active = normalized growth mostly below about 0.91 (no sharp cut-off); inconclusive = no clear call, values can overlap the other calls; inactive = mostly above about 0.92. The list shows a part of the results.
Parameter call: string, one of y = active, n = inactive

Example entries begin here.
[
  {
    "smiles-str": "CC1=C(O)C(=O)C=C2C1=CC=C1[C@@]2(C)CC[C@@]2(C)[C@@H]3C[C@](C)(C(=O)O)CC[C@]3(C)CC[C@]12C",
    "discrete-label": "y"
  },
  {
    "smiles-str": "COc1cc(-c2oc3cc(O)ccc3c(=O)c2O)ccc1O",
    "discrete-label": "n"
  },
  {
    "smiles-str": "CCOC([O-])=Nc1c[n+](N2CCOCC2)no1",
    "discrete-label": "n"
  }
]

IN: Which result was noted for this molecule in the test: NC(=O)NO
OUT: n

IN: Which result was noted for this molecule in the test: CC(=O)NO
OUT: n

IN: Which result was noted for this molecule in the test: COc1ccc(-c2oc3ccccc3c(=O)c2O)cc1OC
OUT: y

---

Assay: chemical genetic growth profiling, strain panel (AID 1159580)
Details: S. cerevisiae deletion strains, growth OD, locus YOR001W, strain rrp6, stronger effect = lower value
Screen size: about 5,500 compounds; about 2,000 (36%) were called active. Another 18% or so got no clear call; they are omitted. The list shows a part of the results.
# if measured normalized growth < 1: satisfied  # else: not satisfied

IN: Is it true that normalized growth reported for NC[C@H]1O[C@H](O[C@H]2[C@H](O)[C@@H](O[C@H]3O[C@H](CO)[C@@H](O)[C@H](N)[C@H]3O)[C@H](N)C[C@@H]2N)[C@H](N)C[C@@H]1O is less than 1?
OUT: not satisfied

IN: Is it true that normalized growth reported for CN1CCN(CCCN2c3ccccc3Sc3ccc(C(F)(F)F)cc32)CC1 is less than 1?
OUT: satisfied

IN: Is it true that normalized growth reported for CC(=O)[O][Hg][c]1ccccc1 is less than 1?
OUT: satisfied

IN: Is it true that normalized growth reported for OCCN1CCN(CCCN2c3ccccc3Sc3ccc(C(F)(F)F)cc32)CC1 is less than 1?
OUT: satisfied

---

Experiment: chemical genetic growth profiling, strain panel (AID 1159580)
Settings: S. cerevisiae deletion strains, growth OD, locus YPL031C, strain PHO85, stronger effect = lower value
Among all 5,500 compounds or so, about 2,000 (36%) were called active. Inconclusive results (about 18%) are left out. This is one part of the list.
List of normalized growth values.
In your answer, state the number alone without any accompanying words.

These recorded examples may help you get a feel for the data.
[
  {
    "compound": "OC(CSc1ccccc1)CN1CCN(c2nc(-c3ccccc3)ns2)CC1 (stereo not drawn)",
    "measured-property": "normalized growth",
    "assay-value": 0.952
  },
  {
    "compound": "Clc1ccc(N/N=C\\c2sccc2Oc2ccccc2)cc1",
    "measured-property": "normalized growth",
    "assay-value": 0.295
  },
  {
    "compound": "S=C(Nc1ccc(Cl)cc1)Nc1ccc(Cl)cc1",
    "measured-property": "normalized growth",
    "assay-value": 0.82
  },
  {
    "compound": "S=C(N/N=C\\c1cccs1)NC1CC2CCC1C2 (stereo not drawn)",
    "measured-property": "normalized growth",
    "assay-value": 0.879
  }
]

IN: Given the compound CC(C)(C)c1ccc(C(=O)NNC(=S)Nc2ccc(Cl)cc2)cc1 , what is its reported normalized growth?
OUT: 0.927

IN: Given the compound O=C(Nc1cc2c(s1)-c1cc(Cl)ccc1SC2)Oc1ccccc1 , what is its reported normalized growth?
OUT: 0.963

IN: Given the compound O=c1c(-c2ccccc2)c(O)c2cccc3c4ccccc4n1c23 , what is its reported normalized growth?
OUT: 0.124

IN: Given the compound O=C(c1cc2c(s1)-c1ccccc1CC2)N1CCN(Cc2ccccc2)CC1 , what is its reported normalized growth?
OUT: 0.981

IN: Given the compound O=C(NNC(=S)Nc1ccc(Cl)cc1)c1ncc(C(F)(F)F)cc1Cl , what is its reported normalized growth?
OUT: 0.901

---

List of normalized growth values.
Assay: chemical genetic growth profiling, strain panel (AID 1159580);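 also: tested at 20 µM; growth read once vehicle control cultures reached saturation at 30 °C; 1 = growth at the plate median or of vehicle wells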
Conditions: S. cerevisiae deletion strains, growth OD, locus YDR069C, strain doa4, stronger effect = lower value
In all, about 5,500 compounds went through this assay and about 2,000 (36%) were called active. Not shown: some 18% with an inconclusive outcome. The list shows a part of the results.
In your answer, state the number alone without any accompanying words.

[
  {
    "compound": "CCN(CC)CCNC(=O)c1cc(Cl)c(N)cc1OC",
    "normalized growth": 0.962
  },
  {
    "compound": "Cc1ccc(N(CC2=NCCN2)c2cccc(O)c2)cc1",
    "normalized growth": 0.998
  },
  {
    "compound": "CN[C@@H]1[C@@H](O[C@H]2O[C@H](CO)[C@@H](N)[C@H](O)[C@H]2O)O[C@H]2C[C@@H](N)[C@H](O[C@H]3[C@H](O)[C@@H](O)[C@H](N)C[C@@H]3N)O[C@@H]2[C@@H]1O",
    "normalized growth": 1.03
  },
  {
    "compound": "Cc1cc(C(C)(C)C)c(O)c(C)c1CC1=NCCN1",
    "normalized growth": 1.01
  },
  {
    "compound": "NC[C@H]1O[C@H](O[C@H]2[C@H](O)[C@@H](O[C@H]3O[C@H](CO)[C@@H](O)[C@H](N)[C@H]3O)[C@H](N)C[C@@H]2N)[C@H](N)C[C@@H]1O",
    "normalized growth": 0.985
  },
  {
    "compound": "O=C(CCBr)N1CCN(C(=O)CCBr)CC1",
    "normalized growth": 1.02
  }
]

IN: Given the compound CO[C@H]1C[C@H](O[C@H]2[C@H](C)[C@@H](OC3O[C@H](C)C[C@H](N(C)C)[C@H]3OC(C)=O)[C@@H](C)C[C@]3(CO3)C(=O)[C@H](C)[C@@H](OC(C)=O)[C@@H](C)[C@@H](C)OC(=O)[C@@H]2C)O[C@@H](C)[C@@H]1OC(C)=O (stereo partly drawn) , what is its reported normalized growth?
OUT: 0.998

IN: Given the compound Cc1cc(C(C)(C)C)cc(C)c1CC1=NCCN1 , what is its reported normalized growth?
OUT: 1.02

---

List of normalized growth values.
Assay: chemical genetic growth profiling, strain panel (AID 1159580);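 also: tested at 20 µM; growth read once vehicle control cultures reached saturation at 30 °C; 1 = growth at the plate median or of vehicle wells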
Conditions: S. cerevisiae deletion strains, growth OD, locus YKL085W, strain MDH1 (second series), stronger effect = lower value
Out of some 5,500 compounds screened, about 2,000 (36%) were called active. Roughly 18% stayed inconclusive and do not appear here. The list shows a part of the results.
In your answer, state the number alone without any accompanying words.

These recorded examples may help you get a feel for the data.
[
  {
    "compound": "COc1cc2c(cc1OC)[C@@H]1C(=O)c3ccc4c(c3O[C@@H]1CO2)CC(C(C)C)O4 (some centres undefined)",
    "assay-value": 0.999
  },
  {
    "compound": "Cc1onc(-c2ccccc2)c1C(=O)NC1C(=O)N2[C@@H]1SC(C)(C)[C@@H]2C(=O)O (some centres undefined)",
    "assay-value": 1.01
  },
  {
    "compound": "CN1CCN(CCCN2c3ccccc3Sc3ccc(C(F)(F)F)cc32)CC1",
    "assay-value": 0.957
  },
  {
    "compound": "CO[C@@]1(NC(=O)Cc2cccs2)C(=O)N2C(C(=O)O)=C(COC(N)=O)CS[C@@H]21",
    "assay-value": 0.992
  },
  {
    "compound": "O=C(O)c1cc(=O)c2c(Cl)cc(Cl)cc2[nH]1",
    "assay-value": 1.01
  }
]

IN: Given the compound CN1CCN(CCC=C2c3ccccc3Sc3ccc(S(=O)(=O)N(C)C)cc32)CC1 , what is its reported normalized growth?
OUT: 1

IN: Given the compound O=C(O)c1cc(=O)c2cccc(O)c2[nH]1 , what is its reported normalized growth?
OUT: 0.964

IN: Given the compound COc1cccc(OC)c1C(=O)N[C@@H]1C(=O)N2[C@@H]1SC(C)(C)[C@@H]2C(=O)O , what is its reported normalized growth?
OUT: 0.986

IN: Given the compound Cc1onc(-c2c(Cl)cccc2Cl)c1C(=O)N[C@@H]1C(=O)N2[C@@H]1SC(C)(C)[C@@H]2C(=O)O , what is its reported normalized growth?
OUT: 0.999

---

List of normalized growth values.
Experiment: chemical genetic growth profiling, strain panel (AID 1159580);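 also: tested at 20 µM; growth read once vehicle control cultures reached saturation at 30 °C; 1 = growth at the plate median or of vehicle wells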
Conditions: S. cerevisiae deletion strains, growth OD, locus YMR129W, stronger effect = lower value
In all, about 5,500 compounds went through this assay and about 2,000 (36%) were called active. About 18% were inconclusive and are not listed. Some of the results follow. *1 amine or outer side, *2 acyl side, *3 side chain or, on linkers, in order; H or OH if unused. Where a SMILES comes first, the peptide text is derived from it. Bridges are numbered along the chain shown (N, C = ends). [ ]: non-standard residue; d: D form. The star is where a group is joined. ξ: configuration not given here. ΔAla(E,3-NHCONH2) = NC(=O)N/C=C(/N)C(=O)O; X2 = NC1=NCCC(C(N[*:1])C(=O)[*:2])N1; ξβ3hOrn = NCCCC(N)CC(=O)*; Dap = NC[CH](N)C(=O)O
In your answer, state the number alone without any accompanying words.

[
  {
    "molecule": "CNS(=O)(=O)c1ccc(NC(=O)c2ccccc2C(=O)O)cc1",
    "normalized growth": 1.01
  },
  {
    "molecule": "NCCCC(N)CC(=O)NCC1NC(=O)C(CO)NC(=O)C(N)CNC(=O)C(C2CCN=C(N)N2)NC(=O)/C(=C\\NC(N)=O)NC1=O (stereo not drawn) (H-[Dap]S[Dap](ξβ3hOrn)[ΔAla(E,3-NHCONH2)][X2]; lactam 1-C; configuration not given here)",
    "normalized growth": 1.02
  },
  {
    "molecule": "COc1cnc(NS(=O)(=O)c2ccc(N)cc2)nc1",
    "normalized growth": 0.985
  },
  {
    "molecule": "CO[C@H]1C[C@H](O[C@H]2[C@H](C)[C@@H](OC3O[C@H](C)C[C@H](N(C)C)[C@H]3OC(C)=O)[C@@H](C)C[C@]3(CO3)C(=O)[C@H](C)[C@@H](OC(C)=O)[C@@H](C)[C@@H](C)OC(=O)[C@@H]2C)O[C@@H](C)[C@@H]1OC(C)=O (some centres undefined)",
    "normalized growth": 0.998
  },
  {
    "molecule": "CCCCCCCCCCCCCCCCCCOCC(O)CO (centres undefined)",
    "normalized growth": 0.989
  }
]

Now let's try a different one.
IN: Given the molecule CNCC[C@@H](Oc1ccccc1)c1ccccc1 , what is its reported normalized growth?
OUT: 0.991
